target: 3',5'-cyclic-AMP phosphodiesterase 4B (Homo sapiens) (UniProt Q07343); assay: qHTS Assay for Inhibitors of PDE-IV (AID 607); details: HEK293 ACTOne CNG channel cells, membrane potential fluorescence; series mostly up to 22.9 µM
Sequence (Q07343 whole entry, looked up): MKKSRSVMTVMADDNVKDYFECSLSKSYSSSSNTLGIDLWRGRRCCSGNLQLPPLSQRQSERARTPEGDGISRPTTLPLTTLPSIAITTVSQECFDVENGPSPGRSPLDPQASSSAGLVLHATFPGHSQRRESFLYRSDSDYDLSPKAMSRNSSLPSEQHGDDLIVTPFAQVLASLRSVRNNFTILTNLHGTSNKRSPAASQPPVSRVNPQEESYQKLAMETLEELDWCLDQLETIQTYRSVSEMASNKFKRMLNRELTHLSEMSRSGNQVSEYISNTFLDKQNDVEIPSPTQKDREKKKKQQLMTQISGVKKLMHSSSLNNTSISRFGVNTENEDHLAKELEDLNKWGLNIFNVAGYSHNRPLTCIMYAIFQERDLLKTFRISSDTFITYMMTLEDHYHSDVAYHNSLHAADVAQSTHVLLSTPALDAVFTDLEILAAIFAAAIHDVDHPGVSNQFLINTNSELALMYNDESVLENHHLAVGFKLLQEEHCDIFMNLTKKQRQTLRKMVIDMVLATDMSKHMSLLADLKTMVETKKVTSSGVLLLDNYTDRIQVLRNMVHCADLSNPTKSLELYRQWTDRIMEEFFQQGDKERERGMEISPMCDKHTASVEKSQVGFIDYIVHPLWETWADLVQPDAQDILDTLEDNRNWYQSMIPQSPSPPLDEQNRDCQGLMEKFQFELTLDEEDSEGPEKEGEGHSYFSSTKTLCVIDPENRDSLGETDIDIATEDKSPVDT
Inconclusive results are not listed. Activity calls are given as the source filed them. The call rests on the fitted dose curve; in most records, active means well fitted activation curve with a large enough effect in the main read-out, with a control signal flat (not every such curve was filed as active); inconclusive means small, poorly fitted or top-dose-only effect, or effect the other way, or a change in a side signal; inactive means flat fitted curve, though single readings scatter.

- chem-smiles: "NCCS"
  outcome: "inactive"
- chem-smiles: "O=C(O)CCc1nc(-c2ccccc2)c(-c2ccccc2)o1"
  outcome: "inactive"
- chem-smiles: "O=c1cc(-c2ccccc2)oc2cc(O)cc(O)c12"
  outcome: "inactive"
- chem-smiles: "CCCCC1C(=O)N(c2ccccc2)N(c2ccccc2)C1=O"
  outcome: "inactive"
- chem-smiles: "Clc1ccc(Cn2c(CN3CCCC3)nc3ccccc32)cc1"
  outcome: "inactive"
- chem-smiles: "COCCCCC(=NOCCN)c1ccc(C(F)(F)F)cc1"
  outcome: "inactive"
- chem-smiles: "CCCCCCCCCCCC1=C(O)C(=O)C=C(O)C1=O"
  outcome: "inactive"
- chem-smiles: "O=c1c(O)c(-c2ccc(O)cc2)oc2cc(O)cc(O)c12"
  outcome: "inactive"
- chem-smiles: "NC(N)=Nc1nc(CSCC/C(N)=N/S(N)(=O)=O)cs1"
  outcome: "inactive"
- chem-smiles: "CCN(CC)C(=O)c1ccc(O)c(OC)c1"
  outcome: "inactive"
- chem-smiles: "O=C1NCC2(CCN(CCc3ccccc3)CC2)O1"
  outcome: "inactive"
- chem-smiles: "Nc1ncnc2c1ncn2[C@@H]1O[C@@H](CO)[C@H](O)[C@H]1O"
  outcome: "inactive"
- chem-smiles: "COc1ccccc1N1CCN(CCCNc2cc(=O)n(C)c(=O)n2C)CC1"
  outcome: "inactive"

----------
test: qHTS Screen of the MIPE 4.0 Collection Against Ewings Sarcoma (EW8) (AID 1259255); settings: EW8 Ewing sarcoma viability, CellTiter-Glo, 48 h; series mostly up to 45.8 µM; further: nearly all actives have a fitted effect of over 35% in size
Records with an inconclusive call do not appear. Active and inactive are the calls of the source. Calls follow the shape of the dose curve; as a rule, active = well fitted inhibition curve with a large enough effect; inconclusive = small, poorly fitted or top-dose-only effect; inactive = no such curve, though single readings can be large or run the other way.
Classes used: active, inactive

- chem-smiles: "CCCCCCCCCCCC1=C(O)C(=O)C=C(O)C1=O"
  class-name: "inactive"
- chem-smiles: "COc1cc(N2CCC(N3CCN(C)CC3)CC2)ccc1Nc1ncnc(Nc2ccccc2S(=O)(=O)C(C)C)n1"
  class-name: "active"
- chem-smiles: "CCc1ccc(C=C2SC(=S)NC2=O)cc1"
  class-name: "inactive"
- chem-smiles: "COC(=O)N[C@H](C(=O)N1CCC[C@@H]1c1ncc(-c2ccc(-c3ccc(-c4cnc([C@@H]5CCCN5C(=O)[C@@H](NC(=O)OC)C(C)C)[nH]4)cc3)cc2)[nH]1)C(C)C"
  class-name: "active"
- chem-smiles: "O=C(O)c1ccccc1C(=O)Nc1ccc(-c2ccccc2)cc1"
  class-name: "inactive"
- chem-smiles: "O=C1NC(=O)C(=Cc2ccc(-c3ccc(F)cc3)o2)S1"
  class-name: "inactive"
- chem-smiles: "CC[C@H]1OC(=O)[C@H](C)[C@@H](O[C@H]2C[C@@](C)(OC)[C@@H](O)[C@H](C)O2)[C@H](C)[C@@H](O[C@@H]2O[C@H](C)C[C@H](N(C)C)[C@@H]2O)[C@](C)(O)C[C@@H](C)CN(C)[C@H](C)[C@@H](O)[C@]1(C)O"
  class-name: "active"
- chem-smiles: "COC(=O)C1=CO[C@@H](O)[C@@H]2C(CO)=CC[C@@H]12"
  class-name: "inactive"
- chem-smiles: "NC(=O)c1cccc2[nH]c(-c3ccc([C@H]4CCCN4)cc3F)nc12"
  class-name: "active"
- chem-smiles: "C[C@H](NC(=O)C(=O)Nc1ccccc1C(C)(C)C)C(=O)N[C@@H](CC(=O)O)C(=O)COc1c(F)c(F)cc(F)c1F"
  class-name: "inactive"
